Values were extracted from paper PMC11596630.

# Assay explanation: Cytotoxicity MTS assay, SH-SY5Y
# Type: cell-based
# Condition: human, SH-SY5Y cells, 24 h exposure, IC50 ± SE
Measurement label: IC50 at 24 h
Please format your answer as a value with the unit trailing.

Input: // IC50 at 24 h lookup, key: CCN(CC)Cc1cc(Nc2ccnc3c(C(F)(F)F)cccc23)ccc1O [Compound 10]
Output: 88 µM

Input: Param item: CCN(CC)Cc1cc(Nc2ccnc3ccccc23)ccc1O [Compound 6]
Output: 453 µM

Input: Then what about the compound CCN(CC)Cc1cc(Nc2ccnc3cc([N+](=O)[O-])ccc23)ccc1O [Compound 4] ?
Output: 26 µM

Input: How about this compound: CCN(CC)Cc1cc(Nc2ccnc3c(F)cccc23)ccc1O [Compound 8]
Output: 85 µM

Input: Can you check CCN(CC)Cc1cc(Nc2cc(C(F)(F)F)nc3ccccc23)ccc1O [Compound 11] next?
Output: 35 µM

Input: Consider next the compound CCN(CC)Cc1cc(Nc2ccnc3ccc(F)cc23)ccc1O [Compound 7] in the same way.
Output: 181 µM

###

# Assay explanation: Cytotoxicity MTS assay, SH-SY5Y
# Format: cell-based
# Condition: 24 h exposure, IC50 ± SE
Measurement label: IC50 at 24 h (µM)
Please give a number only; it is taken to be in µM.

Input: Request the reported IC50 at 24 h associated with CCN(CC)Cc1cc(Nc2ccnc3cc(Cl)ccc23)ccc1O [AMQ, Amodiaquine, reference compound]
Output: 134

###

Documented SI = Ki(BChE)/Ki(AChE) across a set of compounds
# Target: recombinant human AChE (Homo sapiens)
# Construct: gift of Dr Florian Nachon, Armed Forces Biomedical Research Institute, Brétigny-sur-Orge, France
# Sequence (P22303 32-614): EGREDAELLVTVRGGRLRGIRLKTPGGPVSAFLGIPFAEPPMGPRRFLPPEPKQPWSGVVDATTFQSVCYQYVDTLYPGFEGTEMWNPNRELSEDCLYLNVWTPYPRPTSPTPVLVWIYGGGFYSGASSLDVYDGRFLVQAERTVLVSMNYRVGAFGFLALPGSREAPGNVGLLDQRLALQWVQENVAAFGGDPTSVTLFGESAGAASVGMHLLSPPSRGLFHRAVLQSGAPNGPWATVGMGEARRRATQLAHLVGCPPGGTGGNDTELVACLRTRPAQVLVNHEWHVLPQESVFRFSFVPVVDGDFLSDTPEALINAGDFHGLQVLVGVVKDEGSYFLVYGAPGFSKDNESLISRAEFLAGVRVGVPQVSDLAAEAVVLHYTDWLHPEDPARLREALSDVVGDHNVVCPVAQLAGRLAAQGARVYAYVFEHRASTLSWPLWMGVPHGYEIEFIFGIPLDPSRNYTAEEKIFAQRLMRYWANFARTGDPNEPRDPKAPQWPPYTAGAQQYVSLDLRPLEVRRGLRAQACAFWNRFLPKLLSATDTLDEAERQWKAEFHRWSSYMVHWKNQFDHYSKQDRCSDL
# Assay explanation: Inhibition of human AChE (Ellman method, Hunter–Downs Ki)
# Type: biochemical
# Condition: selectivity index, AChE over BChE
Number only, no unit.

Consider the worked cases shown below.
INSERT INTO measurements (smiles, target, measured_number) VALUES
  ('CCN(CC)Cc1cc(Nc2ccnc3ccccc23)ccc1O', 'recombinant human AChE (Homo sapiens)', 26),
  ('CCN(CC)Cc1cc(Nc2ccnc3cccc(C(=O)O)c23)ccc1O', 'recombinant human AChE (Homo sapiens)', 12),
  ('CCN(CC)Cc1cc(Nc2ccnc3cc(C(F)(F)F)ccc23)ccc1O', 'recombinant human AChE (Homo sapiens)', 97),
  ('CCN(CC)Cc1cc(Nc2ccnc3c(C(F)(F)F)cccc23)ccc1O', 'recombinant human AChE (Homo sapiens)', 17),
  ('CCN(CC)Cc1cc(Nc2ccnc3c(F)cccc23)ccc1O', 'recombinant human AChE (Homo sapiens)', 11),
  ('CCN(CC)Cc1cc(Nc2ccnc3cc(OC)ccc23)ccc1O', 'recombinant human AChE (Homo sapiens)', 300);

Input: What value of measured SI = Ki(BChE)/Ki(AChE) is listed for `CCN(CC)Cc1cc(Nc2ccnc3cc(F)ccc23)ccc1O` ?
Output: 77

Input: Now consider `CCN(CCO)Cc1cc(Nc2ccnc3cc(Cl)ccc23)ccc1O` and answer again.
Output: 62

Input: Another compound: `CCN(CC)Cc1cc(Nc2cc(C(F)(F)F)nc3ccccc23)ccc1O`
Output: 0.22

###

# Target: purified human BChE (Homo sapiens)
# Construct: gift of Dr Florian Nachon, Armed Forces Biomedical Research Institute, Brétigny-sur-Orge, France
# Sequence (P06276 29-602): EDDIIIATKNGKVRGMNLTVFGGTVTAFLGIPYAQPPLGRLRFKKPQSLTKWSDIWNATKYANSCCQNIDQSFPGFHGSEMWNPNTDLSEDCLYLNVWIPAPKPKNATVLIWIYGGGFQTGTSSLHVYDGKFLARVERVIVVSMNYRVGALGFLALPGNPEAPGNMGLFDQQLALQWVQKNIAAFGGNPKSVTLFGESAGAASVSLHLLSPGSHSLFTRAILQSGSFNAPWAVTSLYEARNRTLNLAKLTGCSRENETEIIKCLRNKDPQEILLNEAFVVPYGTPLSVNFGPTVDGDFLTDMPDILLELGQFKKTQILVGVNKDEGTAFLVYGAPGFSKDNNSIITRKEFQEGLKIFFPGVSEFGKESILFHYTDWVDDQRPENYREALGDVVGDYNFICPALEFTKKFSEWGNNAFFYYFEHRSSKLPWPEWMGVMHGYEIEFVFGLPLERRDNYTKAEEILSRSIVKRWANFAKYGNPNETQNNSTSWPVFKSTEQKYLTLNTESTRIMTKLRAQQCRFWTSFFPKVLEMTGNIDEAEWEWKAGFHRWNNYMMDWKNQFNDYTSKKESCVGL
# Assay explanation: biochemical
# Type: biochemical
# Condition: Ki BChE, human BChE; Ki ± SE, at least three experiments; ATCh substrate
Measurement label: pKi
Interpret pKi as the negative base-10 log of the concentration measured in mol/L.

Input: Item CCN(CC)Cc1cc(Nc2ccnc3cc(Cl)ccc23)ccc1O [AMQ, Amodiaquine, reference compound] has what recorded pKi?
Output: 5.04
